Task for the reader: assign each of the following binders its reported pKd.
Target: T1, monovalent hVISTA-ECD with polyhistidine tail (SEQ ID NO: 325) (human, UniProt Q9H7M9 33-193)
T1 construct: also called hVISTA-ECD 6-His tag; human VISTA
T1 sequence (Q9H7M9 other isoform, or with tags, fused parts or gaps limits assumed): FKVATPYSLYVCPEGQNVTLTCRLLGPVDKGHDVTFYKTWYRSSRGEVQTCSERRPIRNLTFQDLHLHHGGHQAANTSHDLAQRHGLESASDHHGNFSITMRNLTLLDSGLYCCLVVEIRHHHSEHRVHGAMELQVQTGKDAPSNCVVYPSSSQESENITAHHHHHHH
Experiment: SPR, mAb captured on Protein A chip, hVISTA injected, PBST pH 7.4, 37 C
Please treat pKd as minus the base-10 logarithm of the molar concentration.

// query pKd value for entry P1-077883 (P1-068748 H31S D57K) (antibody, V domains shown, Reversion mutant of P1-068748 (Kabat names); captured on a Protein A chip) VH: QVQLVESGGGVVQPGRSLRLSCAASGFTFSSHAMHWVRQAPGKGLEWVAIIWYDGSNKDYADSVKGRFTISRDNSKNTLYLQMNSLRAEDTAVYYCARDSGFYDSYYFDYWGQGTLVTVSS VL: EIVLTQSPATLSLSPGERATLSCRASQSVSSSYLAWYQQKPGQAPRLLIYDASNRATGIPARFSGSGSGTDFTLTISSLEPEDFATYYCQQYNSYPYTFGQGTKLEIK
6.29

// query pKd value for entry P1-077893 (P1-068748 D57K D100S) (antibody, V domains shown, Reversion mutant of P1-068748 (Kabat names); the antibody was captured on a Protein A chip, so an Fc was present) VH: QVQLVESGGGVVQPGRSLRLSCAASGFTFSHHAMHWVRQAPGKGLEWVAIIWYDGSNKDYADSVKGRFTISRDNSKNTLYLQMNSLRAEDTAVYYCARDSGFYSSYYFDYWGQGTLVTVSS VL: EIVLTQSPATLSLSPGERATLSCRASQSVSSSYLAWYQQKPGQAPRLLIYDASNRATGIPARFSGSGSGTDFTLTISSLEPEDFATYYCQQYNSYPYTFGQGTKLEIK
8.33
